The following binders are shown together with reported interaction score values.
# tested_system: T1, 4H3592-bN
# T1 chain: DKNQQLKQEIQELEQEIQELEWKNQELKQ
# test_summary: two-hybrid library CCNG1;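 note: natural log of median RNA to DNA barcode read ratio; higher means stronger binding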
# respond with the number and nothing more

Answered cases to consult:
Enquiry: Quick one: interaction score for DENQQLEQKIQELKQKNQELKWKIQELKQ [4H1406-bN] ?
Return: 0.142

Enquiry: Please do the same for DKNQQLKQEIQELEQEIQELEWKNQELKQ [4H3592-bN] as well.
Return: -0.397

Enquiry: Param item: DENQQLEQEIQELEQKIQELKWKNQELKQ [4H1072-bN]
Return: 0.235

Enquiry: Queued: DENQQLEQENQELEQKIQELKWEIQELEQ [4H1193-bN]
Return: -0.683

The record that follows has no interaction score shown yet.
Enquiry: Which interaction score value belongs to DENQQLEQKIQELKQKIQELKWENQELEQ [4H1387-bN] ?
Return: 0.94
